# MEASURED_ON: T1, helical cargo-binding domain (HCBD) of mouse myosin VI (residues 1052-1096), GST removed
# T1 chain: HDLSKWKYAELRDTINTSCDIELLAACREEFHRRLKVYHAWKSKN
# EXPERIMENT_DESCRIPTION: sedimentation velocity analytical ultracentrifugation (AUC)
# CONDITION_SUMMARY: chain shown with the change; 150 μM; parent: est. 3.8; read off a plot
OBSERVED_PROPERTY: other: s20,ww-value of the complex (S)
Record the value in S, omitting the unit from your answer.

Query: Return reported other: s20,ww-value of the complex; argument: mouse GIPC1 GH2 domain (residues 258-333), Q9Z0G0 I278Q (protein) SAFEEKAIEKVDDLLESYMGQRDTELAATMVELGKDKRNPDELAEALDERLGDFAFPDEFVFDVWGAIGDAKVGRY
Reply: 2.1

Query: Return reported other: s20,ww-value of the complex; argument: mouse GIPC1 GH2 domain (residues 258-333), Q9Z0G0 M276E (protein) SAFEEKAIEKVDDLLESYEGIRDTELAATMVELGKDKRNPDELAEALDERLGDFAFPDEFVFDVWGAIGDAKVGRY
Reply: 3.3

Query: Return reported other: s20,ww-value of the complex; argument: mouse GIPC1 GH2 domain (residues 258-333), Q9Z0G0 Y275A; M276E; I278Q (protein) SAFEEKAIEKVDDLLESAEGQRDTELAATMVELGKDKRNPDELAEALDERLGDFAFPDEFVFDVWGAIGDAKVGRY
Reply: 1.3
